Measured log10(EC50) accompanies every entry in the list below.
# Tested on: OCI-Ly19
# protocol-summary: CellTiter-Glo Luminescent cell viability assay
# Type: cell-based
# condition-details: cell survival, 72 hours
Recall that a logarithmic scale is used here: each number is log10 of EC50 in µM.

>  <molecule>
CCC(=O)N1CC[C@H](Nc2nccc(Nc3ncc(C(=O)Nc4c(C)cccc4C)s3)n2)C1 [Compound I-9]

>  <system>
OCI-Ly19

>  <log10(EC50)>
1.00

$$$$

Q: Give the measured log10(EC50) of C=CC(=O)N1CCC[C@H](Nc2nccc(Nc3nc4ccc(Oc5ccccc5)nc4s3)n2)C1 [III-3] .
A: 0.40

Q: Give the measured log10(EC50) of C=CC(=O)N1CC[C@@H](Nc2nccc(Nc3ncc(C(=O)Nc4c(C)cccc4C)s3)n2)C1 [Compound I-4] .
A: 0.63

Attribution: patent US10844077B2
